Reference for the values: patent US7626031B2

- testSystem: UniProtKB P29317
- Sequence (P29317 24-976, species assumed): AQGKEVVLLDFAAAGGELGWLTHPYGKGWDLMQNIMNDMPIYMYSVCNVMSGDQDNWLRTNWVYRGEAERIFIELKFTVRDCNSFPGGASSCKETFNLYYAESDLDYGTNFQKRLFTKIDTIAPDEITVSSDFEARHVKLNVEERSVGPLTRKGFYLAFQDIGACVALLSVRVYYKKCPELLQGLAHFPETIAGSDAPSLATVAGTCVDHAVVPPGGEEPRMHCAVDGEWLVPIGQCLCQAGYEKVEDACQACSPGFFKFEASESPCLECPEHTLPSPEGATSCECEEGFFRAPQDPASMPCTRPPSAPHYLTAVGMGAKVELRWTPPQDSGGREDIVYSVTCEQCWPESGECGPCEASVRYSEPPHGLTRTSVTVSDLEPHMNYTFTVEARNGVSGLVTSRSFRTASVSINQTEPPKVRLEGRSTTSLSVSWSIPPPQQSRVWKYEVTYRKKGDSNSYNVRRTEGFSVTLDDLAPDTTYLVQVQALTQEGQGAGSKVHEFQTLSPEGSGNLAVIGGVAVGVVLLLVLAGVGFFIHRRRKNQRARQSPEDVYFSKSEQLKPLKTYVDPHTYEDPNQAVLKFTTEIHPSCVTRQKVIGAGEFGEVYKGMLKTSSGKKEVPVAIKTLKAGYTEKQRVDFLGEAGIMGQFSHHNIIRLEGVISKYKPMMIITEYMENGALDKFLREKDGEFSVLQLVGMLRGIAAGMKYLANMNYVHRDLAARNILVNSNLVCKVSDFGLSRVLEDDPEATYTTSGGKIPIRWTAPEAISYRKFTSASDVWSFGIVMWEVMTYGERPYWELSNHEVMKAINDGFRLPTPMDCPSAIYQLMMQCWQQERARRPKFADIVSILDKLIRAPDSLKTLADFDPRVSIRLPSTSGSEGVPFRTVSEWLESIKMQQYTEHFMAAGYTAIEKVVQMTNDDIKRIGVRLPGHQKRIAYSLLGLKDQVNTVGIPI
- assayOverview: Kinase assay, EphA2 (33P-ATP incorporation or luciferase-coupled ATP consumption)
- Type: biochemical
- Protocol: Kinase assays were performed by measurement of incorporation of γ-^33P ATP into immobilized myelin basic protein (MBP). […] Plates were washed 3× with 100 μl TBS. […] Compound dilutions were performed in DMSO and added to assay wells to a final DMSO concentration of 1%. Each data point was measured in duplicate, and at least two duplicate assays were performed for each individual compound determination. Enzyme was added to final concentrations of 10 nM or 20 nM, for example. […]
Reported IC50 values are given for each entry in this list.

Examples with their reported IC50 follow.
# compound, IC50
data = [
    ("O=C1Nc2ccc(NC3CCN(CCN4CCOCC4)CC3)cc2/C1=C(\\c1cccc(F)c1)c1ncc[nH]1 [Entry 83]", "500 to 5000 nM"),
    ("CCN1CCC(Nc2ccc3c(c2)/C(=C(\\c2ccc(C(F)(F)F)cc2)c2nc(C)c[nH]2)C(=O)N3)CC1 [Entry 101]", "500 to 5000 nM"),
    ("CCN1CCC(Nc2ccc3c(c2)/C(=C(/c2cc(F)cc(F)c2)c2nc4cc(F)ccc4[nH]2)C(=O)N3)CC1 [Entry 61]", "> 5000 nM"),
]

What does the record list as IC50 for CCN1CCC(Nc2ccc3c(c2)/C(=C(\c2ccc(F)cc2)c2ncc[nH]2)C(=O)N3)CC1 [Entry 58] ?
500 to 5000 nM

Item: CCN1CCC(Nc2ccc3c(c2)/C(=C(\c2ccc([N+](=O)[O-])cc2)c2nc4ccccc4[nH]2)C(=O)N3)CC1 [Entry 7]
> 5000 nM

Item: CCN1CCC(Nc2ccc3c(c2)/C(=C(/c2nc(C)c[nH]2)c2cc(F)c(Cl)cc2Cl)C(=O)N3)CC1 [Entry 117]
500 to 5000 nM

Item: O=C1Nc2ccc(NC3CCNCC3)cc2/C1=C(\c1cccc(F)c1)c1ncc[nH]1 [Entry 81]
50 to 500 nM
